Observed Property: melting point (°C)

{"columns": ["Compound", "Unit String", "Experimental Value"],
 "data": [
  ["CCC(CC)n1ncc2c(=O)[nH]c(Cc3cc(Cl)ccc3Cl)nc21 [Example 9]", "°C", 134],
  ["O=c1[nH]c(Cc2ccccc2OC(F)(F)F)nc2c1cnn2C1CCCC1 [Example 14]", "°C", 161],
  ["O=c1[nH]c(Cc2cccc(Br)c2)nc2c1cnn2C1CCCC1 [Example 3]", "°C", 159],
  ["Cc1cccc(Cc2nc3c(cnn3C3CCCC3)c(=O)[nH]2)c1 [Example 8]", "°C", 152],
  ["S=c1[nH]c(Cc2cccc(Cl)c2)nc2c1cnn2C1CCCC1 [Example 13]", "°C", 154],
  ["O=c1[nH]c(Cc2cc(Cl)cc(Cl)c2)nc2c1cnn2C1CCCC1 [Example 5]", "°C", 177],
  ["O=c1[nH]c(Cc2cccc(Cl)c2)nc2c1cnn2C1CCCC1 [Example 1]", "°C", 159],
  ["CCC(CC)n1ncc2c(=O)[nH]c(Cc3cccc(C)c3)nc21 [Example 10]", "°C", 128],
  ["O=c1[nH]c(Cc2ccccc2F)nc2c1cnn2C1CCCC1 [Example 2]", "°C", 180],
  ["CCC(CC)n1ncc2c(=O)[nH]c(Cc3cccc(C(F)(F)F)c3)nc21 [Example 11]", "°C", 120],
  ["CCC(CC)n1ncc2c(=O)[nH]c(Cc3cccc(Cl)c3)nc21 [Example 7]", "°C", 138],
  ["O=c1[nH]c(Cc2ccc(Cl)c(Cl)c2)nc2c1cnn2C1CCCC1 [Example 4]", "°C", 198],
  ["O=c1[nH]c(Cc2cccc(Cl)c2Cl)nc2c1cnn2C1CCCC1 [Example 6]", "°C", 181]
]}

* * *

- Target System: PDE9A (Homo sapiens)
- Sequence (O76083 whole entry): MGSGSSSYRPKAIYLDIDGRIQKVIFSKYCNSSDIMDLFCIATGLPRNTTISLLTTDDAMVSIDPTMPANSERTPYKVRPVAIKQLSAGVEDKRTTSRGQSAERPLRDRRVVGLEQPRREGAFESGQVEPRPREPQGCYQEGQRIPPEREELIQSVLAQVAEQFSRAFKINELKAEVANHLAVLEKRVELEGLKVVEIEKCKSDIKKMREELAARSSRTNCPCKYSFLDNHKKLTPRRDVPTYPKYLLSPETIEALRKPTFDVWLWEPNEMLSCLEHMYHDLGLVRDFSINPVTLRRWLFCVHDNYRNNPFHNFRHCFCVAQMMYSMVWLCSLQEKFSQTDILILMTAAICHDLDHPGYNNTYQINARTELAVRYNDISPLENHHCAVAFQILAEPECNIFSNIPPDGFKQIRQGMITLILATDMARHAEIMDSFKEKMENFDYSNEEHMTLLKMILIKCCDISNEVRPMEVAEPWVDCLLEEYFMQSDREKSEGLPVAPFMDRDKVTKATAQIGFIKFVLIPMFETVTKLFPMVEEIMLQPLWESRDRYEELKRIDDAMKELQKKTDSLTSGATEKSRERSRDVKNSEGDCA
- Experiment Notes: PDE inhibition: recombinant PDE9A, [3H]cGMP scintillation proximity assay
- Condition Context: recombinant PDE9A expressed in Sf9 cells; read-out: IC50 (PDE9A-inhibiting effect)

{"columns": ["Chemical Structure", "IC50, nM"],
 "data": [
  ["O=c1[nH]c(Cc2ccccc2F)nc2c1cnn2C1CCCC1", 30],
  ["CCC(CC)n1ncc2c(=O)[nH]c(Cc3cccc(C)c3)nc21", 64],
  ["O=c1[nH]c(Cc2ccc(Cl)c(Cl)c2)nc2c1cnn2C1CCCC1", 30],
  ["O=c1[nH]c(Cc2cccc(Cl)c2)nc2c1cnn2C1CCCC1", 20],
  ["S=c1[nH]c(Cc2cccc(Cl)c2)nc2c1cnn2C1CCCC1", 30]
]}
